Measured values drawn from a melting point compilation (Tetko et al.; mined from patent text by program, amines drawn as free bases though some values may be those of a salt) for this set.

Property label: melting point (°C)
Give bare numbers, in °C.

I need melting point for every entry listed below, if you could help.
1. COCCCN1C(=O)CS(=Cc2ccccc2Cl)C1=O (stereo not given)
2. CN(C)C=Cc1ccc(OC(F)(F)F)cc1[N+](=O)[O-]

Result:
83
59

---

Property label: melting point

Some solved cases for reference:
- Cc1cc2c(c(C)c1NC(=O)CC(C)(C)C)CC(C)(C)O2: 181 to 182 °C
- COc1ccc(C2(C#Cc3cccc(NS(C)(=O)=O)c3)CCCC(=O)C2)cc1OC1CCCC1 (stereo not given): 59 to 62 °C
- O=S(=O)(c1ccc(Br)s1)N1CCN(c2ccc(F)cc2)CC1: 123 to 124 °C

I need melting point for every entry listed below, if you could help.
1. Cc1ccc(N2C(=O)C(O)=C(C(=O)c3ccc(OC(F)(F)F)cc3)C2c2ccc(Cn3nccn3)cc2)nn1 (stereo not given)
2. CC(C)Oc1c(C(N)=O)n(C)c2ccc(OCc3ccccc3)cc12
3. CC(=O)c1c(C)nc2c(OCc3c(Cl)ccc(S(=O)(=O)N4CCC[C@H]4C(=O)NCCCNC(=O)c4ccc(C(N)=NO)cc4)c3Cl)cccn12
4. NCC1CCn2c(cc3ccccc32)C1 (stereo not given)
5. O=C(Cc1ccc(Cl)c(Cl)c1)N1CCN2CCCC[C@@H]21
6. N#CNC=Nc1ccc(-c2ncc[nH]2)cc1
7. O=C1CCC(c2ccccc2)(c2ccccc2)C2CN(C(Cc3ccccc3)=NC(c3ccccc3)c3ccccc3)CC12 (stereo not given)

Result:
277 °C
164 to 166 °C
164 to 166 °C
85 to 90 °C
102 to 104 °C
202 to 203 °C
172 °C
